- protocolSummary: Solubility of opiranserin hydrochloride as stated in the description
- Format: physicochemical
- testConditions: solvent not stated; regarded as "sparingly soluble"
Where a name gives a salt, the structure may show the parent alone.
parameterMeasured: solubility (mg/mL)
The reply should be a number in mg/mL, with the unit left off.

Exam item: What value of solubility has been recorded for this entry: CCCCOc1c(OC)cc(C(=O)NCC2(N(C)C)CCOCC2)cc1OC [Opiranserin hydrochloride]
Marked response: 25

----------
- protocolSummary: Solubility measurement of opiranserin hydrochloride according to solvents (HPLC)
- Format: physicochemical
- testConditions: 3 w/v % Triacetin, 25 °C, water, thermodynamic from solid, Solvent 14: 3 w/v % Triacetin; 25° C./7 days
Where a name gives a salt, the structure may show the parent alone.
parameterMeasured: solubility at 7 days (mg/mL)
The reply should be a number in mg/mL, with the unit left off.

Exam item: What value of solubility at 7 days has been recorded for this entry: CCCCOc1c(OC)cc(C(=O)NCC2(N(C)C)CCOCC2)cc1OC [Opiranserin hydrochloride]
Marked response: 57.1
